- testProtocol: PK of compound of Formula (Ia) after single subcutaneous dose of solution formulations in beagle dogs
- Assay type: in vivo
- testSettings: male, beagle, dog, plasma, sc, 12 mg/kg, beagle dogs, SC 12 mg/kg, 400 mg/mL solution AA (6.25% poloxamer 188), 1334 h, animals #1-#3
measureName: concentration at 1334 h (nM)
Provide only the numeric value, understood in nM.

Input line: Look up concentration at 1334 h: `CC(C)(C#Cc1ccc(-c2ccc(Cl)c3c(NS(C)(=O)=O)nn(CC(F)(F)F)c23)c([C@H](Cc2cc(F)cc(F)c2)NC(=O)Cn2nc(C(F)(F)F)c3c2C(F)(F)[C@@H]2C[C@H]32)n1)S(C)(=O)=O`
Output line: 35.8

====

- testProtocol: PK of compound of Formula (Ia) after single subcutaneous dose of solution formulations in Wistar Han rats
- Type: in vivo
- testSettings: male, Wistar Han, rat, plasma, sc, 50 mg/kg, male Wistar Han rats, single SC 50 mg/kg, 400 mg/mL solution W (5.00% ethanol, 1.57% poloxamer 188), mean ± SD, n = 3; read-out: AUC0-24 h
measureName: AUC(0-t) (µM·h)
Provide only the numeric value, understood in µM·h.

Input line: Look up AUC(0-t): `CC(C)(C#Cc1ccc(-c2ccc(Cl)c3c(NS(C)(=O)=O)nn(CC(F)(F)F)c23)c([C@H](Cc2cc(F)cc(F)c2)NC(=O)Cn2nc(C(F)(F)F)c3c2C(F)(F)[C@@H]2C[C@H]32)n1)S(C)(=O)=O`
Output line: 2

====

- testProtocol: PK of compound of Formula (Ia) after single subcutaneous dose of solution formulations in Wistar Han rats
- Type: in vivo
- testSettings: male, Wistar Han, rat, plasma, sc, 50 mg/kg, Wistar Han rats, SC 50 mg/kg, 500 mg/mL solution X (5.00% ethanol, 1.91% poloxamer 188), 4032 h, Mean n = 3
measureName: concentration at 4032 h
Reply with a number, then the unit it belongs to.

Input line: Look up concentration at 4032 h: CC(C)(C#Cc1ccc(-c2ccc(Cl)c3c(NS(C)(=O)=O)nn(CC(F)(F)F)c23)c([C@H](Cc2cc(F)cc(F)c2)NC(=O)Cn2nc(C(F)(F)F)c3c2C(F)(F)[C@@H]2C[C@H]32)n1)S(C)(=O)=O [compound of Formula (Ia)]
Output line: 0.135 µM

====

- testProtocol: PK of compound of Formula (Ia) after single subcutaneous dose of solution formulations in Wistar Han rats
- Format: in vivo
- testSettings: male, Wistar Han, rat, plasma, sc, 50 mg/kg, Wistar Han rats, SC 50 mg/kg, 400 mg/mL solution AA (6.25% poloxamer 188), 1008 h, animals #1-#4
measureName: concentration at 1008 h (nM)
Provide only the numeric value, understood in nM.

Input line: Look up concentration at 1008 h: CC(C)(C#Cc1ccc(-c2ccc(Cl)c3c(NS(C)(=O)=O)nn(CC(F)(F)F)c23)c([C@H](Cc2cc(F)cc(F)c2)NC(=O)Cn2nc(C(F)(F)F)c3c2C(F)(F)[C@@H]2C[C@H]32)n1)S(C)(=O)=O [compound of Formula (Ia)]
Output line: 134

====

- testProtocol: PK of compound of Formula (Ia) after single subcutaneous dose of solution formulations in Wistar Han rats
- Type: in vivo
- testSettings: male, Wistar Han, rat, plasma, sc, 50 mg/kg, 72.0 h; mean, n = 3 rats; SC 50 mg/kg; solution R, 400 mg/mL
measureName: concentration at 72 h (nM)
Provide only the numeric value, understood in nM.

Input line: Look up concentration at 72 h: `CC(C)(C#Cc1ccc(-c2ccc(Cl)c3c(NS(C)(=O)=O)nn(CC(F)(F)F)c23)c([C@H](Cc2cc(F)cc(F)c2)NC(=O)Cn2nc(C(F)(F)F)c3c2C(F)(F)[C@@H]2C[C@H]32)n1)S(C)(=O)=O`
Output line: 148

Cited source for all entries: patent US11807625B2
